# tested.target: Aminopeptidase N (Plasmodium falciparum FcB1/Columbia, UniProt O96935)
# Sequence (O96935 whole entry): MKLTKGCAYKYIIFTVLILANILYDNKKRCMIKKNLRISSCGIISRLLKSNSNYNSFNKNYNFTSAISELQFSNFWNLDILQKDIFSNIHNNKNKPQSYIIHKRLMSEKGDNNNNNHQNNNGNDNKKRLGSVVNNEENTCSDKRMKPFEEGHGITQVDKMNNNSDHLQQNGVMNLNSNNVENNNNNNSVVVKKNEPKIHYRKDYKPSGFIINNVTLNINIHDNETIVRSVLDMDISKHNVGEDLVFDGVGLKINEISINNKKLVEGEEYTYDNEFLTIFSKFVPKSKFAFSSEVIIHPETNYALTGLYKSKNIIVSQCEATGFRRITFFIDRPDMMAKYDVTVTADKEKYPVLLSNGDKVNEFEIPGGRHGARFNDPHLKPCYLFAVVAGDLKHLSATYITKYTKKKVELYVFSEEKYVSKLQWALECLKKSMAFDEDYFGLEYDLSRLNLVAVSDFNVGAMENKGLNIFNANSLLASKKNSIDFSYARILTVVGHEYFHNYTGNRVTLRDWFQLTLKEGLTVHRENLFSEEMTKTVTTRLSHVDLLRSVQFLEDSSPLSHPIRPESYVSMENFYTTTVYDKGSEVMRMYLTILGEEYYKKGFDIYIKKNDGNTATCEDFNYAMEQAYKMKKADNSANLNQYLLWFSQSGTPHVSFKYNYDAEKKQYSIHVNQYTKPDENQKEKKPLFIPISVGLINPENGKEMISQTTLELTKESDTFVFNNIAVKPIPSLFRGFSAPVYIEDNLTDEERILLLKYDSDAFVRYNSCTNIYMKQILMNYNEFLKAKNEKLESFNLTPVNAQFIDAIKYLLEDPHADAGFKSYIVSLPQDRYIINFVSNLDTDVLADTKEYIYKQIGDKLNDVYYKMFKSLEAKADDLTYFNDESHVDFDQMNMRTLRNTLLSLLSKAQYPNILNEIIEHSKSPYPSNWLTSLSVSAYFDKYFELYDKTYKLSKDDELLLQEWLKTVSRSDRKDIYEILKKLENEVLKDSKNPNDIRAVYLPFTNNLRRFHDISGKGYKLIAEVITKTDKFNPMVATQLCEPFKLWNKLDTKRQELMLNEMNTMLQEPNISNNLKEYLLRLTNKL
# measurement.notes: malaria alanyl aminopeptidase activity blockers – biochemical, fluorogenic H-Leu-NHMec substrate, 1536-well (AID 1445)
# Parameters: species or system Plasmodium falciparum 3D7, 3D7
Active and inactive are the calls of the source.
Would you kindly list IC50 for each of these compounds?

q: Under Aminopeptidase N (Plasmodium falciparum FcB1/Columbia, UniProt O96935): report IC50 of O=C(CCN1CCOCC1)Nc1c(O)nc2ccc(Br)cc2c1-c1ccccc1 .
a: 93.9 µM (active)

q: Under Aminopeptidase N (Plasmodium falciparum FcB1/Columbia, UniProt O96935): report IC50 of COc1cc(/C=N/N2C(=O)CSC2=S)cc(Br)c1O .
a: 107 µM (active)

q: Under Aminopeptidase N (Plasmodium falciparum FcB1/Columbia, UniProt O96935): report IC50 of Cc1nnc(O)nc1N/N=C/c1cccs1 .
a: 25.8 µM (active)

q: Under Aminopeptidase N (Plasmodium falciparum FcB1/Columbia, UniProt O96935): report IC50 of O=C(NN/C=C1\C(=O)N(c2ccccc2Cl)C(=O)c2ccccc21)c1cccnc1 .
a: 32.6 µM (active)

q: Under Aminopeptidase N (Plasmodium falciparum FcB1/Columbia, UniProt O96935): report IC50 of Cc1ccc(S(=O)(=O)NC2=NC(=O)/C(=C/c3ccc(Br)o3)S2)cc1 .
a: 42.1 µM (active)

q: Under Aminopeptidase N (Plasmodium falciparum FcB1/Columbia, UniProt O96935): report IC50 of O=C(CCC1CCCN(C(=O)c2ccc3cc[nH]c3c2)C1)NCc1ccc(F)c(F)c1 (configuration not stated) .
a: 33.1 µM (active)

q: Under Aminopeptidase N (Plasmodium falciparum FcB1/Columbia, UniProt O96935): report IC50 of CCO/C(O)=C1/C(CC)=Nc2ccccc2N=C1NS(=O)(=O)c1cc(Br)ccc1Br .
a: 30.3 µM (active)

* * *

# tested.target: Heat shock protein HSP 90-alpha (Homo sapiens, UniProt P07900)
# Format: functional, organism-based
The source made the active and inactive calls.
experimental.readout: AC50

q: Under Heat shock protein HSP 90-alpha (Homo sapiens, UniProt P07900): report AC50 of CC(=NNC(=S)N1CCN(c2ccccn2)CC1)c1nccs1 .
a: 2.18 µM (active)

q: Under Heat shock protein HSP 90-alpha (Homo sapiens, UniProt P07900): report AC50 of O=C(C=Cc1cccc(O)c1)c1ccccc1O .
a: 2.81 µM (active)

q: Under Heat shock protein HSP 90-alpha (Homo sapiens, UniProt P07900): report AC50 of O=C1/C(=C\c2ccc(O)c(O)c2)SC(=S)N1Cc1ccccc1 .
a: 3.11 µM (active)

q: Under Heat shock protein HSP 90-alpha (Homo sapiens, UniProt P07900): report AC50 of O=[N+]([O-])c1ccc(Sc2nc3ccccc3o2)c([N+](=O)[O-])c1 .
a: 2.22 µM (active)

q: Under Heat shock protein HSP 90-alpha (Homo sapiens, UniProt P07900): report AC50 of Cc1ccc(S(=O)(=O)Nc2ccc3cc([N+](=O)[O-])ccc3c2[N+](=O)[O-])cc1 .
a: 14.9 µM (active)

q: Under Heat shock protein HSP 90-alpha (Homo sapiens, UniProt P07900): report AC50 of O=C1/C(=C\c2ccc(Cl)c(Cl)c2)CN(C(=O)CCN2CCOCC2)C/C1=C/c1ccc(Cl)c(Cl)c1 .
a: 2.98 µM (active)

q: Under Heat shock protein HSP 90-alpha (Homo sapiens, UniProt P07900): report AC50 of CCOc1ccc(Br)cc1C1=NN(C(C)=O)C(c2ccc([N+](=O)[O-])s2)O1 (centres undefined) .
a: 7.83 µM (active)

q: Under Heat shock protein HSP 90-alpha (Homo sapiens, UniProt P07900): report AC50 of CC(CCc1ccccc1)NC(=O)c1ccc(Br)cc1 (centres undefined) .
a: 2.6 µM (active)

q: Under Heat shock protein HSP 90-alpha (Homo sapiens, UniProt P07900): report AC50 of Cc1cc2ccccn2c1C(=O)c1ccc([N+](=O)[O-])o1 .
a: 3.38 µM (active)

* * *

# tested.target: Caspase-3 (Homo sapiens);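 also: Dose-response selectivity test against caspase-3 for candidate inhibitors of sentrin-specific proteases (SENPs)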
# Sequence (P42574 whole entry): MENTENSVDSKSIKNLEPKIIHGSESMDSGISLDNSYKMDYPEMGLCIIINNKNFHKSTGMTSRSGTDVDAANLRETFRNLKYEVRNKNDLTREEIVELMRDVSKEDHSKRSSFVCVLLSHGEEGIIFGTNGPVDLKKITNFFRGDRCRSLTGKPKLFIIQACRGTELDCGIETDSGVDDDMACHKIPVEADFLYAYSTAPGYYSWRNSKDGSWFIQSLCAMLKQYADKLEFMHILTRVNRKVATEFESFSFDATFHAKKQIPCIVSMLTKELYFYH
# Type: functional
Activity calls are given as the source filed them.
experimental.readout: IC50

q: Provide one value: measured IC50 of CCCOc1ccc(C(=O)Nc2ccc(Cl)cn2)cc1
a: 7.83 µM (active)

q: Provide one value: measured IC50 of CCC(COC)Oc1cc(NCc2ccccc2)c2ncn(C(C)C)c2c1 (stereo unspecified)
a: 6.47 µM (active)

q: Provide one value: measured IC50 of O=C1/C(=C\c2ccc(O)c(O)c2)SC(=S)N1Cc1ccccc1
a: 67.5 µM (active)

q: Provide one value: measured IC50 of O=c1[nH]c(N2CCOCC2)cc2ccccc12
a: 1.59 µM (active)

q: Provide one value: measured IC50 of COc1ccc(-c2cc3ccc(OC)cc3cn2)cc1
a: 15.8 µM (active)

q: Provide one value: measured IC50 of O=C1c2ccccc2C(=O)C12OC2c1cccc2ccccc12 (stereo unspecified)
a: 91.9 µM (active)

* * *

# measurement.notes: cells
# Assay type: functional, cell-based
Active and inactive are the calls of the source.
Would you kindly list EC50 for each of these compounds?

q: Provide one value: measured EC50 of COc1ccccc1NC(=O)c1nc(S(=O)(=O)Cc2ccccc2)ncc1Cl
a: 5 µM (active)

q: Provide one value: measured EC50 of O=C(C1=C[C@@H](C2CC2)C[C@@H](OCCCCO)O1)N1CCN(Cc2ccc3c(c2)OCO3)CC1
a: > 350 µM (not active)

q: Provide one value: measured EC50 of COc1ccc(C(=O)C2CCCN(C(=O)C3CCOCC3)C2)cc1OC (centres undefined)
a: > 350 µM (not active)

q: Provide one value: measured EC50 of CCc1cc2c(O)nc(-c3ccccn3)nc2s1
a: 28.8 µM (active)

* * *

# tested.target: UniProt:P38532
# Sequence (P38532 whole entry): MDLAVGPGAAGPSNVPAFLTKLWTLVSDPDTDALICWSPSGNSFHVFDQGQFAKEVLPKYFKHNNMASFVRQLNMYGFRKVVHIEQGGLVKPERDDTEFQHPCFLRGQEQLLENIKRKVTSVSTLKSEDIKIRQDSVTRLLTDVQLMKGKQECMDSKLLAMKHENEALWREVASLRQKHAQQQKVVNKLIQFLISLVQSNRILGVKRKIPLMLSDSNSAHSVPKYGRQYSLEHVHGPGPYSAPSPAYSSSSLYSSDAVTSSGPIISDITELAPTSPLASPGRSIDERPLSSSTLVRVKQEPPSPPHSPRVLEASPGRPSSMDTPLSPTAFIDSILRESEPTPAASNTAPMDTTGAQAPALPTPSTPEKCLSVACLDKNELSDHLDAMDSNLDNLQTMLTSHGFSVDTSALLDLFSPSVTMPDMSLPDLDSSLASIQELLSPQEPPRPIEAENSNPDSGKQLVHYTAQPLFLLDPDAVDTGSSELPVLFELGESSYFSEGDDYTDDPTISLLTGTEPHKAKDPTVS
# measurement.notes: enhancement of HSF1-driven luciferase signal – cell-based, NIH3T3, luminescence, dose retest, confirmation (AID 435004);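 also: stress induced by proteasome inhibitor MG132 added 30 min after compound; luciferase reporter driven by HSF1 response element in NIH3T3 cells; actives raise luminescence as potentiators of the MG132 stress response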
# Assay type: functional
The source made the active and inactive calls.
Tick one outcome: y = active, n = inactive

q: Hey, what did the test say about Sc1nc2cc(Cl)c3cccnc3c2o1 ?
a: n

q: Hey, what did the test say about CCOC(=O)c1nnc(-c2ccccc2)nc1Sc1ccccc1Cl ?
a: y

q: Hey, what did the test say about O=[N+]([O-])c1ccc(Sc2nc3ccccc3o2)c([N+](=O)[O-])c1 ?
a: y

q: Hey, what did the test say about O=C1Nc2ccccc2/C1=C/c1c[nH]cn1 ?
a: y

q: Hey, what did the test say about COc1ccc(NC(=O)CN(C)S(=O)(=O)c2ccc(Br)s2)cc1OC ?
a: n

q: Hey, what did the test say about Cc1ccc(S(=O)(=O)CCN2CCN(c3ccccc3)CC2)cc1 ?
a: n

q: Hey, what did the test say about CN(CCC1CCCCO1)C(=O)CCc1nnc(CCCCc2ccccc2)o1 (stereo not drawn) ?
a: y

q: Hey, what did the test say about Cc1ccc(-c2cc(C(F)F)nc(S(C)(=O)=O)n2)cc1 ?
a: y

q: Hey, what did the test say about O=C1CCN(C(=O)Nc2ccccc2Cl)N1 ?
a: n

q: Hey, what did the test say about Cn1c(Cl)cnc1C1CC(=O)c2cc(Cl)ccc2O1 (stereo not drawn) ?
a: y

q: Hey, what did the test say about Cc1ccc(/C=C2/NC(=O)N(Cc3ccc(Br)cc3)C2=O)o1 ?
a: n

q: Hey, what did the test say about CCn1c(CNC(C)=O)nnc1SCC(=O)c1ccc(Br)cc1 ?
a: n

q: Hey, what did the test say about Clc1ccc(CSc2nnc(-c3sccc3-n3cccc3)o2)cc1 ?
a: n

q: Hey, what did the test say about COc1ccc(C(=O)Nc2cc(C(F)(F)F)ccc2-n2cnc3ccccc32)cc1 ?
a: n

q: Hey, what did the test say about O=C(CCC1CCCN(C(=O)c2ccc3cc[nH]c3c2)C1)NCc1ccc(F)c(F)c1 (stereo not drawn) ?
a: y

q: Hey, what did the test say about COc1cccc(NC(=O)CN2C(=O)COc3ccc(S(=O)(=O)N4CCC(C)CC4)cc32)c1 ?
a: n

q: Hey, what did the test say about CCc1cc2c(=O)[nH]c(-c3ccccn3)nc2s1 ?
a: y

q: Hey, what did the test say about Cc1ccc(S(=O)(=O)NNC(=O)c2cnn(-c3ccc(Cl)cc3)c2C(F)(F)F)cc1 ?
a: n

Values compiled from ChEMBL document CHEMBL1201862.
